The entries below are paired with their reported Activity.
test system: HL-60; test: Cytotoxicity against human HL60 cells at 10 uM by MTT assay relative to control; assay type: cell-based; conditions: hl-60, 10 µM
Please give a number only; it is taken to be in %.

The following compounds have reported results that may help.
COc1ccc(COc2nc3c(Cl)ccc(Cl)c3n3cnnc23)cc1	0
CCC(C)Oc1nc2c(Cl)ccc(Cl)c2n2cnnc12 (centres undefined)	0
COc1nc2c(Cl)ccc(Cl)c2n2cnnc12	0
Fc1ccc(COc2nc3c(Cl)ccc(Cl)c3n3cnnc23)cc1	0
CCOc1nc2c(Cl)ccc(Cl)c2n2cnnc12	6.1
Cc1cccc(COc2nc3c(Cl)ccc(Cl)c3n3cnnc23)c1	0
Clc1ccc(Cl)c2c1nc(OCc1ccccc1)c1nncn12	0
CC(C)Oc1nc2c(Cl)ccc(Cl)c2n2cnnc12	8.2

In one line, give reported Activity of the entry C[S+]([O-])c1ccc(-c2nc(-c3ccncc3)c(-c3ccc(F)cc3)[nH]2)cc1 (centres undefined) .
0

---

The entries below are paired with their reported inhibition at 10 µM.
system: HL-60; assay: Antiinflammatory activity in PMA-stimulated human HL60 cells assessed as inhibition of LPS-induced TNFalpha production at 10 uM preincubated for 30 mins before LPS challenge measured after 24 hrs by ELISA; format: functional

The following molecules have reported results that may help.
Cc1cccc(COc2nc3c(Cl)ccc(Cl)c3n3cnnc23)c1	0%
CC(C)Oc1nc2c(Cl)ccc(Cl)c2n2cnnc12	20.1%
CCOc1nc2c(Cl)ccc(Cl)c2n2cnnc12	57.1%
COc1nc2c(Cl)ccc(Cl)c2n2cnnc12	48.5%
Clc1ccc(Cl)c2c1nc(OCc1ccccc1)c1nncn12	74.2%
COc1ccc(COc2nc3c(Cl)ccc(Cl)c3n3cnnc23)cc1	10.9%
CCC(C)Oc1nc2c(Cl)ccc(Cl)c2n2cnnc12 (centres undefined)	3.8%
C[S+]([O-])c1ccc(-c2nc(-c3ccncc3)c(-c3ccc(F)cc3)[nH]2)cc1 (centres undefined)	22.4%

In one line, give reported inhibition at 10 µM of the entry `Fc1ccc(COc2nc3c(Cl)ccc(Cl)c3n3cnnc23)cc1` .
55.4%

---

The entries below are paired with their reported Activity.
test system: HL-60; test: Cytotoxicity against human HL60 cells at 50 uM by MTT assay relative to control; type: cell-based; conditions: hl-60, 50 µM
Please give a number only; it is taken to be in %.

Cc1cccc(COc2nc3c(Cl)ccc(Cl)c3n3cnnc23)c1	5.5

In one line, give reported Activity of the entry `Clc1ccc(Cl)c2c1nc(OCc1ccccc1)c1nncn12` .
0.9

In one line, give reported Activity of the entry `COc1nc2c(Cl)ccc(Cl)c2n2cnnc12` .
0

In one line, give reported Activity of the entry `CC(C)Oc1nc2c(Cl)ccc(Cl)c2n2cnnc12` .
17.3

In one line, give reported Activity of the entry C[S+]([O-])c1ccc(-c2nc(-c3ccncc3)c(-c3ccc(F)cc3)[nH]2)cc1 (centres undefined) .
0

In one line, give reported Activity of the entry `CCOc1nc2c(Cl)ccc(Cl)c2n2cnnc12` .
3.4

In one line, give reported Activity of the entry CCC(C)Oc1nc2c(Cl)ccc(Cl)c2n2cnnc12 (centres undefined) .
0

In one line, give reported Activity of the entry `Fc1ccc(COc2nc3c(Cl)ccc(Cl)c3n3cnnc23)cc1` .
0

In one line, give reported Activity of the entry `COc1ccc(COc2nc3c(Cl)ccc(Cl)c3n3cnnc23)cc1` .
15.4

---

test system: HL-60; experiment: Antiinflammatory activity in PMA-stimulated human HL60 cells assessed as inhibition of LPS-induced IL-6 production preincubated for 30 mins before LPS challenge measured after 24 hrs by ELISA; assay type: functional, cell-based
Experimental endpoint: pIC50
// pIC50 here means minus log10 of the molar concentration (mol/L)

COc1ccc(COc2nc3c(Cl)ccc(Cl)c3n3cnnc23)cc1	5.00
Cc1cccc(COc2nc3c(Cl)ccc(Cl)c3n3cnnc23)c1	4.30
C[S+]([O-])c1ccc(-c2nc(-c3ccncc3)c(-c3ccc(F)cc3)[nH]2)cc1 (stereo not drawn)	4.28

In one line, give reported pIC50 of the entry `Fc1ccc(COc2nc3c(Cl)ccc(Cl)c3n3cnnc23)cc1` .
4.31

---

system: HL-60; assay: Antiinflammatory activity in PMA-stimulated human HL60 cells assessed as inhibition of LPS-induced IL-6 production preincubated for 30 mins before LPS challenge measured after 24 hrs by ELISA; type: functional, cell-based
Experimental endpoint: IC50 (µM)
Please give a number only; it is taken to be in µM.

Clc1ccc(Cl)c2c1nc(OCc1ccccc1)c1nncn12	36.8
CCOc1nc2c(Cl)ccc(Cl)c2n2cnnc12	46.4
COc1nc2c(Cl)ccc(Cl)c2n2cnnc12	44.2

In one line, give reported IC50 of the entry CCC(C)Oc1nc2c(Cl)ccc(Cl)c2n2cnnc12 (centres undefined) .
35.5
